Assayed system: D(3) dopamine receptor (Homo sapiens, UniProt P35462)
Sequence (P35462 whole entry): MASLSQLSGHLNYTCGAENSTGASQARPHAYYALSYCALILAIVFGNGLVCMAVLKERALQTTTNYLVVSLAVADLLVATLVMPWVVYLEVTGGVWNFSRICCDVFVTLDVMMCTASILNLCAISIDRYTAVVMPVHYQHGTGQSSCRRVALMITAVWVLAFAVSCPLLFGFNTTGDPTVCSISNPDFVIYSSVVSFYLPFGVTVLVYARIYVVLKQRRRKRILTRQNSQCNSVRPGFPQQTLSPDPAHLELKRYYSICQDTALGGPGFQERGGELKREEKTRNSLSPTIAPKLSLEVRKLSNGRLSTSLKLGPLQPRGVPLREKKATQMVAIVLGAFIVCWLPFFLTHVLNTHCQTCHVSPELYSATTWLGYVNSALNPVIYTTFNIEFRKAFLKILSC
Test description: Displacement of [125I]-IABN from human recombinant dopamine D3 receptor expressed in HEK293 cell membrane incubated for 60 mins filtration binding assay
Measured endpoint: Ki (nM)
Answers are plain numbers, in nM.

Sample O=C(CCCN1CCC(n2c(O)nc3ccccc32)CC1)c1ccc(F)cc1 — what was its Ki?
0.29

---

Assayed system: Histamine H1 receptor (Homo sapiens)
Sequence (P35367 whole entry): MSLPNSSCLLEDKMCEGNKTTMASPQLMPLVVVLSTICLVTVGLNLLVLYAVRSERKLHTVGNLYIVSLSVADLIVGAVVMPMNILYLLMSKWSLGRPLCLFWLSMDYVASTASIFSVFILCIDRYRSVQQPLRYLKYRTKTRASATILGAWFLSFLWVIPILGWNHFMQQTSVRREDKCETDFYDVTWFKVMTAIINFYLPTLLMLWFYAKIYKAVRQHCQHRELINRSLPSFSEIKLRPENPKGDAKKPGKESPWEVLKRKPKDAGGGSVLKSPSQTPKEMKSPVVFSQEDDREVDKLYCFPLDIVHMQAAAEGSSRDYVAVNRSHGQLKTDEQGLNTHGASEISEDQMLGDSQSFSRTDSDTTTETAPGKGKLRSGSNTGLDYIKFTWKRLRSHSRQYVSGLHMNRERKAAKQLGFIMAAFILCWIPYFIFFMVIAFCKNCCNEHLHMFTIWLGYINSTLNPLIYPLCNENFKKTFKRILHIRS
Test description: Displacement of [3H]Pyrilamine from human recombinant histamine H1 receptor incubated for […] by microbeta scintillation counting method
Assay context: read-out: Ki
Threshold 300 nM. Ki below it: label 1. Ki at it or above: label 0.

Answered examples (4):
[
  {
    "Compound": "O=C1NCN(c2ccccc2)C12CCN(CCCCc1nc3ccccc3o1)CC2",
    "Label value": "label 0"
  },
  {
    "Compound": "Cl.O=C(CCCCN1C2CCC1CC(O)(c1ccc(Cl)cc1)C2)c1nc2ccccc2s1 (stereo not given)",
    "Label value": "label 0"
  },
  {
    "Compound": "O=C1NCN(c2ccccc2)C12CCN(CCCCc1nc3ccccc3s1)CC2",
    "Label value": "label 0"
  },
  {
    "Compound": "O=C1NCN(c2ccccc2)C12CCN(CCCCc1c[nH]c3ccccc13)CC2",
    "Label value": "label 1"
  }
]

Field: below-cutoff. Rule: recorded Ki strictly less than 300 nM. Subject: O=C1NCN(c2ccccc2)C12CCN(CCCCc1nc3cc(Cl)ccc3s1)CC2
label 1
